molecular target: BRAF V600E (Homo sapiens, UniProt P15056, V600E); experiment: HiBiT cellular BRAF^V600E degradation assay; type: cell-based; conditions: A375.10 cells, 24 h; concentration at which 50% of total cellular BRAF^V600E is degraded
Sequence (P15056 whole entry V600E): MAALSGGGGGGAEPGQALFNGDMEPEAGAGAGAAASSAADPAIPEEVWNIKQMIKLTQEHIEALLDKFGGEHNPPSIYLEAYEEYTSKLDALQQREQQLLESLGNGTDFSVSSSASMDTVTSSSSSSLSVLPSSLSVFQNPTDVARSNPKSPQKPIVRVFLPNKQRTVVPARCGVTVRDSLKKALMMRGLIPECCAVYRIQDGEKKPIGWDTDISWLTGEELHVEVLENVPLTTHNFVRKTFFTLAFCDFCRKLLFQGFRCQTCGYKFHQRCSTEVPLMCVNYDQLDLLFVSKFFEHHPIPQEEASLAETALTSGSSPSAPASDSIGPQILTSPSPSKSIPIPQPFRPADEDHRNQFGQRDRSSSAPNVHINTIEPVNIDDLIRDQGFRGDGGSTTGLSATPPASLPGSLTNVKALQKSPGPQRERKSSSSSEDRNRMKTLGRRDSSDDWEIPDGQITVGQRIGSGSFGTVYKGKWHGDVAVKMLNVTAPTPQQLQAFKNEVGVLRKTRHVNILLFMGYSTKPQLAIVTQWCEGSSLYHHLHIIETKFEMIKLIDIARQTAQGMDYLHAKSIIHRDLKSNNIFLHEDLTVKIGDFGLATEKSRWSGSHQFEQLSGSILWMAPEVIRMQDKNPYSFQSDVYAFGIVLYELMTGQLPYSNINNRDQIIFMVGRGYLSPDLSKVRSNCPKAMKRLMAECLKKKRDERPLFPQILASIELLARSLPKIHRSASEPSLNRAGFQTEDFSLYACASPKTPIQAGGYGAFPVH
// boundary case: DC50 equal to 20 nM maps to not met; strictly smaller maps to met

• CCN(C)S(=O)(=O)Nc1ccc(F)c(Oc2ccc3ncc(-n4cc(N5CCCN(C(=O)CN6CCC(c7ccc(NC8CCC(=O)NC8=O)cc7F)CC6)CC5)cn4)nc3c2)c1C#N (stereo not shown) [Example 215] = met
• CN(CC(F)F)S(=O)(=O)Nc1ccc(F)c(Oc2ccc3ncn(-c4cnc(N5CCN(C(=O)CN6CCC(c7ccc(N[C@@H]8CCC(=O)NC8=O)cc7F)CC6)CC5)nc4)c(=O)c3c2)c1C#N [Example 119] = not met
• CCN(C)S(=O)(=O)Nc1ccc(F)c(Oc2ccc3ncn(-c4cnc(N5CCN(C(=O)CN6CCC(c7ccc(N[C@H]8CCC(=O)NC8=O)cc7F)CC6)CC5)nc4)c(=O)c3c2)c1C#N [Example 92] = met
• CCN(C)S(=O)(=O)Nc1ccc(F)c(Oc2ccc3ncn(-c4cnc(N5CCN(C(=O)CN6CCC(c7ccc(N[C@@H]8CCC(=O)NC8=O)cc7F)CC6)CC5)nc4)c(=O)c3c2COC)c1C#N [Example 135] = not met
• N#Cc1c(NS(=O)(=O)N2CC[C@@H](F)C2)ccc(F)c1Oc1ccc2ncn(-c3cnc(N4CCN(C(=O)CN5CCC(c6ccc(N[C@H]7CCC(=O)NC7=O)cc6F)CC5)CC4)nc3)c(=O)c2c1 [Example 116] = met
• CCN(C)S(=O)(=O)Nc1ccc(F)c(Oc2ccc3ncn(C4COC5(CCN(C(=O)CN6CCC(c7ccc8c(N9CCC(=O)NC9=O)nn(C)c8c7)CC6)CC5)C4)c(=O)c3c2)c1C#N (stereo not shown) [Example 148] = met
• Cn1nc(C2CCC(=O)NC2=O)c2ccc(C3CCN(CC(=O)N4CCC5(CC4)C[C@@H](n4cnc6ccc(Oc7c(F)ccc(NS(=O)(=O)N8CC[C@@H](F)C8)c7C#N)cc6c4=O)CO5)CC3)cc21 (stereo partly shown) [Example 165] = not met
• CCN(C)S(=O)(=O)Nc1ccc(F)c(Oc2ccc3ncn(C4COC5(CCN(C(=O)CC6(O)CCN(c7ccc(NC8CCC(=O)NC8=O)cc7F)CC6)CC5)C4)c(=O)c3c2)c1C#N (stereo not shown) [Example 27] = met
• CCN(C)S(=O)(=O)Nc1ccc(F)c(Oc2ccc3ncn([C@H]4[C@@H]5CN(c6ccc(C(=O)NC7CCN(c8ccc(NC9CCC(=O)NC9=O)cc8F)CC7)cc6)C[C@@H]54)c(=O)c3c2)c1C#N (stereo partly shown) [Example 35] = met
• CCN(C)S(=O)(=O)Nc1ccc(F)c(Oc2ccc3ncn([C@H]4COC5(CCN(C(=O)CN6CC(c7ccc8c(C9CCC(=O)NC9=O)nn(C)c8c7)C6)CC5)C4)c(=O)c3c2)c1C#N (stereo partly shown) [Example 171] = not met
